src = patent US6617127B2

SUBJECT OF TEST: EC 3.5.1.27 PDF (Fe^2+) enzyme (Escherichia coli, UniProt P0A6K3)
Construct: made in house; host or cells: E. coli (overproducing cells)
Sequence (P0A6K3 whole entry): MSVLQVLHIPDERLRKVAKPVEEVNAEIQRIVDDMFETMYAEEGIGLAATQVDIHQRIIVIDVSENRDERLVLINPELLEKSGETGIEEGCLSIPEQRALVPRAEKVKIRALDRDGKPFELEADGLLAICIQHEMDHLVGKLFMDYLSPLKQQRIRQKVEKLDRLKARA
ASSAY DETAILS: Deformylation reactions with PDF (Fe^2+), free amino compound determined by TNBS
Format: biochemical, E. coli
CONDITIONS: 100 mM substrate, 0.2 mM PDF (Fe^2+), MES/KOH pH 6.2, 250 mM KCl, 37° C., after 10 hours
Residues, ends and D or L forms follow the SMILES beside them. *: point of attachment. For = O=C*
ASSAY METRIC: yield (%) of deformylated product

compound="O=CN[C@@H](CC(=O)O)C(=O)N[C@@H](Cc1ccccc1)C(=O)O [F-α-AP, N-formyl-α-L-aspartyl-L-phenylalanine] (For-Asp-Phe-OH)" endpoint_value=21.6
compound=COC(=O)[C@H](Cc1ccccc1)NC(=O)C[C@H](NC=O)C(=O)O endpoint_value=0.2
compound=O=CN[C@@H](CC(=O)O)C(=O)O endpoint_value=0.5
compound=O=CN[C@@H](CC(=O)N[C@@H](Cc1ccccc1)C(=O)O)C(=O)O endpoint_value=1.1
compound="COC(=O)[C@H](Cc1ccccc1)NC(=O)[C@H](CC(=O)O)NC=O [F-α-APM] (For-Asp-Phe-OMe)" endpoint_value=44.2
